- subjectOfTest: Macrophage metalloelastase (Homo sapiens, UniProt P39900)
- Sequence (P39900 whole entry, the tested form may be a part): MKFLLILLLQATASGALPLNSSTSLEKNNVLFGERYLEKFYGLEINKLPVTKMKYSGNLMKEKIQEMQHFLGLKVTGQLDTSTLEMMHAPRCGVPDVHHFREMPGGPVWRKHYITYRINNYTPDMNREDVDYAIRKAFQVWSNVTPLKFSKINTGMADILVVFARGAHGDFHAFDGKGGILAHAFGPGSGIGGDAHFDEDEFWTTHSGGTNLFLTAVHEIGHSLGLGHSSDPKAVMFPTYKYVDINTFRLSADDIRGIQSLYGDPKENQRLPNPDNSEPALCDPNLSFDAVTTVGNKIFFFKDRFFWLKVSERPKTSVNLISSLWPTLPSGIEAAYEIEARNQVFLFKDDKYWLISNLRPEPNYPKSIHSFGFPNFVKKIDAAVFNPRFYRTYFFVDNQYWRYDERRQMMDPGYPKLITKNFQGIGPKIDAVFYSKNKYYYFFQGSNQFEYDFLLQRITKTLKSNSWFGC
- assayProcedure: Inhibition of human recombinant MMP12 catalytic domain incubated for 20 mins by fluorimetric assay
pIC50: −log10 of the molar value.

compound	pIC50
CCCCOC(=O)[C@H]1c2c(/C=C/C(=O)O[C@H](Cc3ccc(O)c(O)c3)C(=O)O)ccc(O)c2O[C@@H]1c1ccc(O)c(O)c1	5.75
COC(=O)[C@@H](Cc1ccc(O)c(O)c1)OC(=O)/C=C/c1ccc(O)c2c1[C@H](C(=O)OC)[C@@H](c1ccc(O)c(O)c1)O2 [DIMETHYL LITHOSPERMATE]	6.17
O=c1c(O)c(-c2ccc(O)c(O)c2)oc2cc(O)cc(O)c12 [QUERCETIN]	4.99
O=c1cc(-c2ccc(O)c(O)c2)oc2cc(O)cc(O)c12 [LUTEOLIN]	6.01
O=C1c2c(O)cc(O)cc2O[C@H](c2cc(O)c(O)c(O)c2)[C@@H]1O	5.76
COC(=O)C1(O)CC(OC(=O)/C=C/c2ccc(O)c(O)c2)C(O)C(OC(=O)/C=C/c2ccc(O)c(O)c2)C1 (centres undefined) [MACRATHOIN F]	5.92
C[C@@H]1O[C@@H](O[C@@H]2[C@@H](O)[C@H](OCCc3ccc(O)c(O)c3)O[C@H](COC(=O)/C=C/c3ccc(O)c(O)c3)[C@H]2O)[C@H](O)[C@H](O)[C@H]1O [ISOACTEOSIDE]	5.09
CNC(=O)C(CCc1ccccc1)NC(=O)C(CC(=O)NO)CC(C)C (centres undefined)	8.09
COC(=O)[C@@H](Cc1ccc(O)c(O)c1)OC(=O)/C=C/c1ccc(O)c(O)c1 [METHYL ROSMARINATE]	5.56

====

- subjectOfTest: Stromelysin-1 (Homo sapiens)
- Sequence (P08254 whole entry, the tested form may be a part): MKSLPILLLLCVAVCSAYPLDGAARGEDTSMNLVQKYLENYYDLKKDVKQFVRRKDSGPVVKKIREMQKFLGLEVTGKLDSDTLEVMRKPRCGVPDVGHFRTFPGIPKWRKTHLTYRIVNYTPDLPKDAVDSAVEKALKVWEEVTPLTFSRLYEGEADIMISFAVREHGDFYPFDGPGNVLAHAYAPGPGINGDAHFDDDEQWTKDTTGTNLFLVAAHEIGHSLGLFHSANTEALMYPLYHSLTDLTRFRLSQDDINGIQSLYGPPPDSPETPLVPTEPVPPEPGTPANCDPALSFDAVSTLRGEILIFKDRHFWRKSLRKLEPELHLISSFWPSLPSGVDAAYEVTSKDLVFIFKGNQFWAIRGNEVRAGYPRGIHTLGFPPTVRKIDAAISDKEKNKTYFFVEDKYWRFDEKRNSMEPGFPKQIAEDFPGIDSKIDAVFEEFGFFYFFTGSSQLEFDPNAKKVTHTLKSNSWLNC
- assayProcedure: Inhibition of human recombinant MMP3 catalytic domain incubated for 20 mins by fluorimetric assay
pIC50: −log10 of the molar value.
reportedProperty: pIC50

compound	reportedProperty	recordedResult
C[C@@H]1O[C@@H](O[C@@H]2[C@@H](O)[C@H](OCCc3ccc(O)c(O)c3)O[C@H](COC(=O)/C=C/c3ccc(O)c(O)c3)[C@H]2O)[C@H](O)[C@H](O)[C@H]1O [ISOACTEOSIDE]	pIC50	4.04
O=C(c1c(O)cc(O)cc1O)C1c2c(cc(O)c3c2O[C@H](c2ccc(O)cc2)[C@@H](O)C3)OC1c1ccc(O)cc1 (stereo partly drawn) [DIHYDRODAPHNODORIN B]	pIC50	4.59
O=C1c2c(O)cc(O)cc2O[C@H](c2cc(O)c(O)c(O)c2)[C@@H]1O	pIC50	4.69
COC(=O)[C@@H](Cc1ccc(O)c(O)c1)OC(=O)/C=C/c1ccc(O)c2c1[C@H](C(=O)OC)[C@@H](c1ccc(O)c(O)c1)O2 [DIMETHYL LITHOSPERMATE]	pIC50	5.09
CCCCOC(=O)[C@H]1c2c(/C=C/C(=O)O[C@H](Cc3ccc(O)c(O)c3)C(=O)O)ccc(O)c2O[C@@H]1c1ccc(O)c(O)c1	pIC50	4.83
COc1ccc(S(=O)(=O)N2CC(C)(C)CN(S(=O)(=O)c3ccc(OC)cc3)C2C(=O)NO)cc1	pIC50	7.54
O=C1c2c(O)cc(O)cc2O[C@]2(c3ccc(O)cc3)Oc3cc(O)c4c(c3[C@@]12O)O[C@H](c1ccc(O)cc1)CC4	pIC50	4.65
COC(=O)[C@@H](Cc1ccc(O)c(O)c1)OC(=O)/C=C/c1ccc(O)c(O)c1 [METHYL ROSMARINATE]	pIC50	4.55
O=c1c(O)c(-c2ccc(O)c(O)c2)oc2cc(O)cc(O)c12	pIC50	5.25
COC(=O)C1(O)CC(OC(=O)/C=C/c2ccc(O)c(O)c2)C(O)C(OC(=O)/C=C/c2ccc(O)c(O)c2)C1 (stereo not drawn)	pIC50	4.98
O=c1cc(-c2ccc(O)c(O)c2)oc2cc(O)cc(O)c12	pIC50	4.79
CC(C)CC(=O)OC(C(=O)O)C(C)C (stereo not drawn)	pIC50	4.42
COC(=O)C1(O)CC(O)C(O)C(OC(=O)/C=C/c2ccc(O)c(O)c2)C1 (stereo not drawn)	pIC50	4.23
